System: Inhibin beta A chain (activin A)
experiment-description: small molecules binding activin A – biochemical, small-molecule microarray, 635 nm fluorescence scan, primary screen (AID 1107);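 further: mouse activin A protein probed at 4.33 µg/mL on printed slides; score merges bound-protein fluorescence near 667 nm with spot signal-to-noise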
condition: INHBA, higher = more signal
Listed here: items and their measured composite z-score.
Hey, just send me the number, nothing else.

Example results:
C=CCNC(=O)[C@@H]1[C@H]2C(=O)O[C@H](c3ccccc3)[C@H](c3ccccc3)N2[C@H](c2ccc(OCCO)cc2)[C@@]12C(=O)N(C(=O)OCCOC)c1ccc(C#Cc3ccc(OC)cc3)cc12 | 0.688
C=CCC(OC(C)=O)[C@@H]1[C@@H](N(Cc2cc3ccccc3o2)C(=O)Cc2ccc(F)cc2)c2cc(OCCCO)ccc2N1C(=O)Cc1ccc2ccccc2c1 (stereo partly drawn) | 0.779
COc1ccc([Si](C)(C)[C@@H]2[C@@H](CCO)O[C@]3(C(=O)N(Cc4ccccc4)c4ccc(N5CCOC5=O)cc43)[C@H]2C)cc1 | 0.729
N#Cc1ccc(NN2C(C(O)c3ccc(Br)cc3)C=CC3C(=O)N(c4ccccc4)C(=O)C32)cc1 (stereo not drawn) | -0.374
CCCC=C(CCC)[C@@H](NC(=O)C(C)(C)C)c1ccc(C(=O)OC)cc1 | 0.757

compound COc1cc(C(O)C2C=CC3C(=O)N(C)C(=O)C3N2Nc2ccccc2)cc(OC)c1OC (stereo not drawn) , composite z-score observed: 0.916

Recorded composite z-score (compound CCOC(=O)C1=CC[C@@H](c2ccccc2)N(S(=O)(=O)c2ccc(C)cc2)[C@H]1c1ccccc1 ): 0.903

Per the record, [N-]=[N+]=Nc1ccccc1C[C@@]1(C(N)=O)N=C(c2ccc(OCCCO)cc2)O[C@@H]1c1ccccc1N=[N+]=[N-] has composite z-score of 1.46

* * *

tested-on: E3 ubiquitin-protein ligase XIAP (Homo sapiens)
experiment-description: small molecules binding XIAP protein – biophysical, small-molecule microarray, fluorescence 635 nm, primary screen (AID 1181);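 further: score merges 667 nm emission and signal to noise over triplicate slides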
condition: higher = more signal
Class 1: composite z-score at least 0.005. Class -1: composite z-score below 0.005.

Reference set, count: 2
CCOC(=O)C[C@H]1[C@H](OC(=O)Cc2ccc3c(c2)OCO3)[C@@H](NC(=O)c2ccc3ccccc3n2)c2cc(OCCCO)ccc2N1C(=O)c1ccc2ccccc2n1 | -1
NC(=O)[C@@]1(Cc2ccccc2)COC(c2ccc(OCCCO)cc2)=N1 | -1

Request: Identify whether the reported composite z-score of the following compound is 0.005 or greater: CCN(CC)c1ccc(N2CC=CC34O[C@@H]5/C=C\CCCOC(=O)C5[C@H]3C(=O)N(C(C)CO)[C@@H]4C2=O)cc1 (stereo partly specified)
Response: 1

Request: Could you verify whether the entry COC(=O)C1=CC(CCCO)=CC(c2cccs2)N(Cc2cccc(OC(F)(F)F)c2)C=C1C(=O)OC (stereo unspecified) shows composite z-score of no less than 0.005?
Response: -1

Request: Is reported composite z-score greater than or equal to 0.005 here: CCCC[C@@H](O)C1=C(COC)C[C@H]2C(=O)N(C)C(=O)[C@H]2[C@H]1CO
Response: -1

Request: Kindly determine if composite z-score recorded for CCCCCC1=C2CNC(C)(C(=O)OC)C=C2C(C)C1=O (stereo unspecified) is above or exactly 0.005.
Response: 1

Request: Kindly determine if composite z-score recorded for C#CCN([C@@H](Cc1ccccc1)C(=O)OC)[C@@H](/C=C/C1CC1)[C@H](O)Cc1ccccc1 is above or exactly 0.005.
Response: -1
